Would you kindly list total protein half-life in vivo for each of these sequences?
Assay: total protein half-life in vivo (active degradation + dilution); higher = more stable protein
Conditions: E. coli NCM3722 delta-smpB; growth: N-lim chemostat; doubling time 6 h
Numbers only, in h.

Study these solved cases before continuing.
construct-sequence	numeric-readout
MTTMLEVAKRAGVSKATVSRVLSGNGYVSQETKDRVFQAVEESGYRPNLLARNLSAKSTQTLGLVVTNTLYHGIYFSELLFHAARMAEEKGRQLLLADGKHSAEEERQAIQYLLDLRCDAIMIYPRFLSVDEIDDIIDAHSQPIMVLNRRLRKNSSHSVWCDHKQTSFNAVAELINAGHQEIAFLTGSMDSPTSIERLAGYKDALAQHGIALNEKLIANGKWTPASGAEGVEMLLERGAKFSALVASNDDMAIGAMKALHERGVAVPEQVSVIGFDDIAIAPYTVPALSSVKIPVTEMIQEIIGRLIFMLDGGDFSPPKTFSGKLIRRDSLIAPSR	3.44
MTQPVLDIQQLHLSFPGFNGDVHALNNVSLQINRGEIVGLVGESGSGKSVTAMLIMRLLPTGSYCVHRGQISLLGEDVLNAREKQLRQWRGARVAMIFQEPMTALNPTRRIGLQMMDVIRHHQPISRREARAKAIDLLEEMQIPDAVEVMSRYPFELSGGMRQRVMIALAFSCEPQLIIADEPTTALDVTVQLQVLRLLKHKARASGTAVLFISHDMAVVSQLCDSVYVMYAGSVIESGVTADVIHHPRHPYTIGLLQCAPEHGVPRQLLPAIPGTVPNLTHLPDGCAFRDRCYAAGAQCENVPALTACGDNNQRCACWYPQQEVISV	4.53
MTTLTARPEAITFDPQQSALIVVDMQNAYATPGGYLDLAGFDVSTTRPVIANIQTAVTAARAAGMLIIWFQNGWDEQYVEAGGPGSPNFHKSNALKTMRKQPQLQGKLLAKGSWDYQLVDELVPQPGDIVLPKPRYSGFFNTPLDSILRSRGIRHLVFTGIATNVCVESTLRDGFFLEYFGVVLEDATHQAGPKFAQKAALFNIETFFGWVSDVETFCDALSPTSFAHIA	0.441
MPLLDSFTVDHTRMEAPAVRVAKTMNTPHGDAITVFDLRFCVPNKEVMPERGIHTLEHLFAGFMRNHLNGNGVEIIDISPMGCRTGFYMSLIGTPDEQRVADAWKAAMEDVLKVQDQNQIPELNVYQCGTYQMHSLQEAQDIARSILERDVRINSNEELALPKEKLQELHI	3.97

Go through the items and report each one's total protein half-life in vivo.
1. MKIAILSRDGTLYSCKRLREAAIQRGHLVEILDPLSCYMNINPAASSIHYKGRKLPHFDAVIPRIGTAITFYGTAALRQFEMLGSYPLNESVAIARARDKLRSMQLLARQGIDLPVTGIAHSPDDTSDLIDMVGGAPLVVKLVEGTQGIGVVLAETRQAAESVIDAFRGLNAHILVQEYIKEAQGCDIRCLVVGDEVVAAIERRAKEGDFRSNLHRGGAASVASITPQEREIAIKAARTMALDVAGVDILRANRGPLVMEVNASPGLEGIEKTTGIDIAGKMIRWIERHATTEYCLKTGG [P0C0U4]
2. MTQPMPGKPAEDAENELDIRGLFRTLWAGKLWIIGMGLAFALIALAYTFFARQEWSSTAITDRPTVNMLGGYYSQQQFLRNLDVRSNMASADQPSVMDEAYKEFVMQLASWDTRREFWLQTDYYKQRMVGNSKADAALLDEMINNIQFIPGDFTRAVNDSVKLIAETAPDANNLLRQYVAFASQRAASHLNDELKGAWAARTIQMKAQVKRQEEVAKAIYDRRMNSIEQALKIAEQHNISRSATDVPAEELPDSEMFLLGRPMLQARLENLQAVGPAFDLDYDQNRAMLNTLNVGPTLDPRFQTYRYLRTPEEPVKRDSPRRAFLMIMWGIVGGLIGAGVALTRRCSK [P0AG00]
3. MQASQFSAQVLDWYDKYGRKTLPWQIDKTPYKVWLSEVMLQQTQVATVIPYFERFMARFPTVTDLANAPLDEVLHLWTGLGYYARARNLHKAAQQVATLHGGKFPETFEEVAALPGVGRSTAGAILSLSLGKHFPILDGNVKRVLARCYAVSGWPGKKEVENKLWSLSEQVTPAVGVERFNQAMMDLGAMICTRSKPKCSLCPLQNGCIAAANNSWALYPGKKPKQTLPERTGYFLLLQHEDEVLLAQRPPSGLWGGLYCFPQFADEESLRQWLAQRQIAADNLTQLTAFRHTFSHFHLDIVPMWLPVSSFTGCMDEGNALWYNLAQPPSVGLAAPVERLLQQLRTGAPV

Result:
3.78
6.22
3.52

Go through the items and report each one's total protein half-life in vivo.
1. MTQGAVKTTGKRSRAVSAKKKAILSAALDTFSQFGFHGTRLEQIAELAGVSKTNLLYYFPSKEALYIAVLRQILDIWLAPLKAFREDFAPLAAIKEYIRLKLEVSRDYPQASRLFCMEMLAGAPLLMDELTGDLKALIDEKSALIAGWVKSGKLAPIDPQHLIFMIWASTQHYADFAPQVEAVTGATLRDEVFFNQTVENVQRIIIEGIRPR [P0ACU2]
2. MIPLQHGLILAAILFVLGLTGLVIRRNLLFMLIGLEIMINASALAFVVAGSYWGQTDGQVMYILAISLAAAEASIGLALLLQLHRRRQNLNIDSVSEMRG [P0AFE4]
3. MRTISYSEARQNLSATMMKAVEDHAPILITRQNGEACVLMSLEEYNSLEETAYLLRSPANARRLMDSIDSLKSGKGTEKDIIE
4. MSEGWNIAVLGATGAVGEALLETLAERQFPVGEIYALARNESAGEQLRFGGKTITVQDAAEFDWTQAQLAFFVAGKEATAAWVEEATNSGCLVIDSSGLFALEPDVPLVVPEVNPFVLTDYRNRNVIAVPDSLTSQLLAALKPLIDQGGLSRISVTSLISASAQGKKAVDALAGQSAKLLNGIPIDEEDFFGRQLAFNMLPLLPDSEGSVREERRIVDEVRKILQDEGLMISASVVQAPVFYGHAQMVNFEALRPLAAEEARDAFVQGEDIVLSEENEFPTQVGDASGTPHLSVGCVRNDYGMPEQVQFWSVADNVRFGGALMAVKIAEKLVQEYLY

Result:
1: 4.92; 2: 5.17; 3: 3.15; 4: 4.57
